Test system: Pseudomonas aeruginosa
TEST_METHOD_NOTES: bacteriostatic activity (MIC), Pseudomonas aeruginosa
Type: cell-based
STATED_CONDITIONS: Pseudomonas aeruginosa, 48 h, Table VI, bacteriostase without serum; read-out: M.I.C.
Structures can show the parent of a compound that is named as a salt.
We begin with a simple list: items and their reported MIC.

COMPOUND: CCCCCCCCCCCCOCC(O)CN.Cl (stereo not shown)
TARGET_ENTITY: Pseudomonas aeruginosa
MEASUREMENT_UNITS: µg/mL
RELATION_OPERATOR: =
MIC: 800
//
COMPOUND: CCCCCCCCCCCCCCCCCCOCC(O)CN.Cl (stereo not shown)
TARGET_ENTITY: Pseudomonas aeruginosa
MEASUREMENT_UNITS: µg/mL
RELATION_OPERATOR: =
MIC: 1300
//
COMPOUND: CCCCCCCCCC(O)CN (stereo not shown)
TARGET_ENTITY: Pseudomonas aeruginosa
MEASUREMENT_UNITS: µg/mL
RELATION_OPERATOR: =
MIC: 200
//
COMPOUND: CCCCCCCCCCOCC(O)CN (stereo not shown) [Compound 13, 3-decyloxy-2-hydroxy-1-aminopropane]
TARGET_ENTITY: Pseudomonas aeruginosa
MEASUREMENT_UNITS: µg/mL
RELATION_OPERATOR: =
MIC: 150
//
COMPOUND: CCCCCCCCCCSCC(O)CN (stereo not shown) [Compound 14, hydrochloride]
TARGET_ENTITY: Pseudomonas aeruginosa
MEASUREMENT_UNITS: µg/mL
RELATION_OPERATOR: =
MIC: 200
//
COMPOUND: CCOCC(O)CN.Cl (stereo not shown)
TARGET_ENTITY: Pseudomonas aeruginosa
MEASUREMENT_UNITS: µg/mL
RELATION_OPERATOR: >
MIC: 1300
//
COMPOUND: COCC(O)CN (stereo not shown)
TARGET_ENTITY: Pseudomonas aeruginosa
MEASUREMENT_UNITS: µg/mL
RELATION_OPERATOR: >
MIC: 1300
//
COMPOUND: CCCCCCCCCCCCCCOCC(O)CN (stereo not shown) [Compound 9, hydrochloride]
TARGET_ENTITY: Pseudomonas aeruginosa
MEASUREMENT_UNITS: µg/mL
RELATION_OPERATOR: =
MIC: 1250
//
COMPOUND: CCCCCCCCOCC(O)CN.Cl (stereo not shown)
TARGET_ENTITY: Pseudomonas aeruginosa
MEASUREMENT_UNITS: µg/mL
RELATION_OPERATOR: =
MIC: 300
//
COMPOUND: Br.CCCCCCCCCCOCC(O)CN (stereo not shown)
TARGET_ENTITY: Pseudomonas aeruginosa
MEASUREMENT_UNITS: µg/mL
RELATION_OPERATOR: =
MIC: 100
//
COMPOUND: CCCCCCCCCCOCC(O)C[N+](C)(C)C (stereo not shown)
TARGET_ENTITY: Pseudomonas aeruginosa
MEASUREMENT_UNITS: µg/mL
RELATION_OPERATOR: =
MIC: 600
//
COMPOUND: CCCCCCCCCCCC(O)CN (stereo not shown) [Compound 8, 2-hydroxy-1-amino tridecane]
TARGET_ENTITY: Pseudomonas aeruginosa
MEASUREMENT_UNITS: µg/mL
RELATION_OPERATOR: >
MIC: 1000
//
COMPOUND: CCCCCCCCC(O)CN (stereo not shown)
TARGET_ENTITY: Pseudomonas aeruginosa
MEASUREMENT_UNITS: µg/mL
RELATION_OPERATOR: =
MIC: 400
